Hey, just so you know, these numbers are from patent US12325706B2.

- assay: Approximate solubility of starting material at RT
- Format: physicochemical
- measurementParameters: organic solvent or mixture, 2-MeTHF, RT

molecule	solubility
C[C@H](O)C(=O)C1=Nc2c(nc(N)[nH]c2=O)NC1 [Form A, sepiapterin]	< 2000 µg/mL

---

- assay: Approximate solubility of starting material at RT
- Assay type: physicochemical
- measurementParameters: organic solvent or mixture, IPA, RT

molecule	solubility
C[C@H](O)C(=O)C1=Nc2c(nc(N)[nH]c2=O)NC1 [Form A, sepiapterin]	< 1300 µg/mL

---

- assay: Approximate solubility of starting material at RT
- Format: physicochemical
- measurementParameters: organic solvent or mixture, MTBE, RT

compound	solubility
C[C@H](O)C(=O)C1=Nc2c(nc(N)[nH]c2=O)NC1 [Form A, sepiapterin]	< 2000 µg/mL
